tgt: UniProt:Q6ZSR9
Sequence (Q6ZSR9 whole entry): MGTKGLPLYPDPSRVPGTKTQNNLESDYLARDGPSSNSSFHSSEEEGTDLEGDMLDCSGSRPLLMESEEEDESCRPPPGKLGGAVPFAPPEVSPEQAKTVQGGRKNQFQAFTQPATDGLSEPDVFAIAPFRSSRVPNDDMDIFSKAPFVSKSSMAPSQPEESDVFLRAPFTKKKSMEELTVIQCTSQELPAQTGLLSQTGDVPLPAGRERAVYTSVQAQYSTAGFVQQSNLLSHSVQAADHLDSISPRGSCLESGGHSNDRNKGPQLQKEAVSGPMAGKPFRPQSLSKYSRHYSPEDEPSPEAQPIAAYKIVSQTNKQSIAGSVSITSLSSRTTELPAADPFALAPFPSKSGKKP
condition_info: read-out: Kd apparent; k-562, colo 205, sk-n-be(2) and mv-4-11
Activity calls are given as the source filed them. No stated cut-off is given here; in the data, actives have a measured Kd and inactives only a lower limit.
Possible outcomes: active, inactive

>>> print(df.to_string())
                                    compound  answer_label
 0          O=S(=O)(c1cccc2cnccc12)N1CCCNCC1      inactive
 1  CC(C)CC(=O)Nc1[nH]nc2c1CN(C(=O)C1CCN(C)CC1)C2(C)C      inactive
 2  COc1cc2ncnc3c2cc1OCCCCCN(C)Cc1ccc(Br)cc1N3      inactive
 3  CC1(C)CNc2cc(NC(=O)c3cccnc3NCc3ccncc3)ccc21      inactive
 4  CN(c1ncccc1CNc1nc(Nc2ccc3c(c2)CC(=O)N3)ncc1C(F)(F)F)S(C)(=O)=O      inactive
 5    O=C(NC[C@H](O)CO)c1ccncc1Nc1ccc(I)cc1F      inactive
 6  Cn1c(=O)c(F)c(Nc2ccc(I)cc2F)c2c(=O)n(C[C@@H](O)CO)cnc21      inactive
 7  C[C@]1(O)C[C@@H](c2nc(-c3ccc4ccc(-c5ccccc5)nc4c3)c3c(N)nccn32)C1      inactive
 8  Cc1c(NC(=O)OC[C@@H]2COCCN2)cn2ncnc(Nc3ccc4c(cnn4Cc4cccc(F)c4)c3)c12      inactive
 9  NC(=O)c1ccc(N(C(N)=O)c2c(F)cccc2F)nc1-c1ccc(F)cc1F      inactive
10  COc1cc(F)c(F)c(Nc2ccc(I)cc2F)c1NS(=O)(=O)C1(C[C@H](O)CO)CC1      inactive
11  C[C@@H]1COC(Nc2ccc3ncnc(Nc4ccc(OCc5nccs5)c(Cl)c4)c3c2)=N1      inactive
12  C=CC(=O)Nc1cccc(Nc2nc(Nc3ccc(N4CCN(C(C)=O)CC4)cc3OC)ncc2C(F)(F)F)c1      inactive
13  Cc1cc(-c2cc(OC(=O)c3ccccc3)ccc2Cl)cc2nnc(Nc3ccc(OCCN4CCCC4)cc3)nc12      inactive
14  COc1ccc2c(OCc3nnc4ccc(-c5ccccc5)nn34)ccnc2c1      inactive
15  CC[C@@](C)(Nc1ccnc(-c2c[nH]c3ncccc23)n1)C(=O)NCC(F)(F)F        active
16  COc1cccc2cc(-c3nc([C@H]4CC[C@H](C(=O)O)CC4)n4ncnc(N)c34)[nH]c12      inactive
